Assay: qHTS for Inhibitors of human tyrosyl-DNA phosphodiesterase 1 (TDP1): qHTS in cells in presence of CPT; also: nearly all actives have a fitted effect of over 55% in size
Settings: chicken DT40 Tdp1-/-;hTDP1 cells + 20 nM CPT, ATP luminescence, 48 h; series mostly up to 46.2 µM
The campaign covered roughly 420,000 compounds. About 50,000 (12%) were called active. Roughly 26% stayed inconclusive and do not appear here. Calls follow the shape of the dose curve; as a rule, active = well fitted inhibition curve with a large enough effect; inconclusive = small, poorly fitted or top-dose-only effect; inactive = flat fitted curve, though single readings scatter. This excerpt belongs to a sample that is enriched for actives.
Classes used: active, inactive

INSERT INTO assay_data (compound, assignedclass) VALUES
  ('CCc1nnc(NC(=O)c2cc(S(=O)(=O)N3CCCCC3)ccc2C)s1', 'inactive'),
  ('O=C(COC(=O)c1ccc2c(c1)OCCO2)NCc1ccccc1Cl', 'inactive'),
  ('Cc1cnc(CN(C)C(=O)C2CCC(=O)N(CCc3cccc(F)c3)C2)[nH]1 (stereo not drawn)', 'inactive'),
  ('COc1cccc(N2C(=O)CC(N3CCc4ccccc4C3)C2=O)c1 (stereo not drawn)', 'inactive'),
  ('CCc1ccc(C(=O)NN=C2CCCCCC2)s1', 'inactive'),
  ('CC(C)NC(=S)NN=C1CCCCCCCCCCC1', 'active'),
  ('COC(=O)C1CCN(C(=O)COC(=O)c2cc(S(=O)(=O)N3CCOCC3)ccc2C)CC1', 'inactive'),
  ('CCOC(=O)C1CCN(S(=O)(=O)c2ccc3c(c2)N(C(C)=O)CCO3)CC1', 'inactive'),
  ('Cc1cccc(NC(=O)c2ccc([N+](=O)[O-])o2)c1', 'active'),
  ('Cc1onc(NC(=O)c2ccc([N+](=O)[O-])o2)c1Br', 'inactive'),
  ('OC(CNC1CCCC1)COc1ccc(F)cc1 (stereo not drawn)', 'inactive'),
  ('COC(=O)c1cccc(N2C(=O)C3C4C=CC(CC4)C3C2=O)c1 (stereo not drawn)', 'inactive'),
  ('O=C(CN(C(=O)c1csnn1)c1ccc(Br)cc1)NC1CCCC1', 'inactive'),
  ('CCCNC(=O)C(=O)Nc1cc2c3c(c1)CCC(=O)N3CCC2', 'inactive'),
  ('CCOC(=O)C1CCCN(S(=O)(=O)c2ccc(-n3cnnn3)c(C)c2)C1 (stereo not drawn)', 'inactive'),
  ('Cc1cccc(NC(=O)CCn2c(=O)oc3ccccc32)c1', 'inactive'),
  ('CCOc1ccc(N2CC(C(=O)NCCN3C(=O)S/C(=C\c4cccnc4)C3=O)CC2=O)cc1 (stereo not drawn)', 'inactive'),
  ('O=C(Nc1ccc(OCCO)cc1)c1csc([C@H]2C[C@H](O)[C@@H](CO)O2)n1', 'inactive'),
  ('Cc1ccc(S(=O)(=O)N2CCOCC2)cc1C(=O)OC1CCCCC1=O (stereo not drawn)', 'inactive'),
  ('CN(CC(=O)NCCc1ccc(S(N)(=O)=O)cc1)CC(=O)Nc1ccc(Cl)cc1', 'inactive'),
  ('O=C(Nc1ccc(Br)cn1)c1ccc([N+](=O)[O-])o1', 'active'),
  ('S=C(Nc1cccc(Cl)c1)Nc1ccc2c(c1)OCCO2', 'inactive'),
  ('O=C(Nc1ccc(F)c([N+](=O)[O-])c1)C1CCCO1 (stereo not drawn)', 'inactive');

---

Assay: qHTS for Inhibitors of human tyrosyl-DNA phosphodiesterase 1 (TDP1): qHTS in cells in presence of CPT; also: nearly all actives have a fitted effect of over 55% in size; also: potency is read from the fitted curve at half-maximal effect
Conditions: chicken DT40 Tdp1-/-;hTDP1 cells + 20 nM CPT, ATP luminescence, 48 h; series mostly up to 46.2 µM
Out of some 420,000 compounds screened, about 50,000 (12%) were called active. Inconclusive results (about 26%) are left out. What follows is part of a selection rich in actives, with near analogues and random picks from the rest.
readoutKind: Potency

INSERT INTO measurements (molecule, readoutkind, measurement) VALUES
  ('COc1ccccc1OCCn1c(SCC(N)=O)nc2ccccc21', 'Potency', 'inactive'),
  ('CC(=O)N[C@@H](C)C(=O)N1CCC(n2nccc2NC(=O)CCCc2ccccc2)CC1', 'Potency', 'inactive'),
  ('COc1ccc(CNC(=O)C(C)n2nc(C)c3c(C)n(-c4ccccc4)nc3c2=O)c(OC)c1 (configuration not stated)', 'Potency', '16.4 µM (active)'),
  ('COc1ccccc1CNC(=O)Cn1c(=O)oc2cc(Cl)ccc21', 'Potency', 'inactive'),
  ('COc1ccccc1CNC(=O)Cn1nc(C)c2nn(-c3ccc(Cl)cc3)c(C)c2c1=O', 'Potency', '20.6 µM (active)'),
  ('COc1ccc(OCC(O)CN(C)C(=O)C(C)Oc2ccccc2)cc1 (configuration not stated)', 'Potency', 'inactive'),
  ('CCCc1c(C)nc2c(Br)cccc2c1Cl', 'Potency', 'inactive'),
  ('CN1C(=O)c2[nH]nc(-c3ccc(F)cc3)c2C1c1ccccn1 (configuration not stated)', 'Potency', 'inactive'),
  ('COc1ccccc1OCC(O)CN1CCOCC1 (configuration not stated)', 'Potency', 'inactive'),
  ('Cc1nc2c(C(=O)NCc3ccc4c(c3)OCO4)c[nH]n2c(=O)c1Cc1ccccc1F', 'Potency', 'inactive'),
  ('CN1CCN(C(=O)c2ccccc2NC(=O)COc2ccccc2Cl)CC1', 'Potency', 'inactive'),
  ('CCc1ccc(S(=O)(=O)c2nnn3c2nc(N2CCN(CC)CC2)c2sccc23)cc1', 'Potency', 'inactive'),
  ('CNC(=O)C(NC(=O)c1ccccc1)=C(C)C', 'Potency', 'inactive'),
  ('CCOc1ccc(/C(O)=C2\C(=O)C(=O)N(c3ccc(OC)cc3)C2c2ccccc2[N+](=O)[O-])cc1 (configuration not stated)', 'Potency', 'inactive'),
  ('COc1ccccc1CNC(=O)Cn1cc2c(n1)CCCC2', 'Potency', 'inactive'),
  ('O=S(=O)(c1ccc(-c2ccno2)s1)N1CCCCC1', 'Potency', 'inactive'),
  ('COc1ccc(NS(=O)(=O)c2cccc3nsnc23)cc1Cl', 'Potency', 'inactive'),
  ('CCOC(=O)c1c(/N=C/c2cc(C)ccc2O)sc2c1CCC2', 'Potency', 'inactive'),
  ('Cc1ccc(-n2nc3c(=O)n(C(C)C(=O)NCc4ccc5c(c4)OCO5)nc(C)c3c2C)cc1 (configuration not stated)', 'Potency', '18.4 µM (active)'),
  ('CCCn1c(=N)n(CC(O)COc2ccccc2OC)c2ccccc21 (configuration not stated)', 'Potency', '11.6 µM (active)'),
  ('C=CCc1ccc(OCC(O)CN2CCN(Cc3ccccc3)CC2)c(OC)c1 (configuration not stated)', 'Potency', 'inactive'),
  ('Cc1nn(CC(=O)N2CCCCC2)c(=O)c2nn(-c3ccccc3)c(C)c12', 'Potency', 'inactive');
